# Tested on: OVCAR-3 ovarian
# assay-details: NCI-60 one-dose screen, 48 h
# study-conditions: 10 µM unless noted
The panel holds about 83,000 compounds, 20% with a hit somewhere; the sample as a whole holds those more often. Activity calls are given as the source filed them. Rule for the calls: active = growth percent below 10; inactive = the rest.
Give your call using only these classes: active, inactive

Could you kindly confirm the outcome this assay logged for Fc1c[c-]c(-c2ccccn2)c(F)c1.Fc1c[c-]c(-c2ccccn2)c(F)c1.[Cl][Pt+].[Cl][Pt+].c1ccc([PH+](C[PH+](c2ccccc2)c2ccccc2)c2ccccc2)cc1 ?
active

Please share the test call associated with Cc1ccc(S(=O)(=O)N(c2ccc(Cl)cc2)c2ccc(Br)cc2C(=O)O)cc1 .
inactive

Please state the recorded outcome for this compound: COc1cccc2c(=O)c3c(sc12)c(NCCN(C)C)nc1ccccc13
inactive

Outcome logged for Cc1nc2cc(Nc3nc(Nc4ccc(F)cc4)nc(N4CCN(C)CC4)n3)ccc2n1Cc1ccccc1 in this assay:
active

How was Cn1c2c(cc(S(=O)(=O)c3ccccc3)c1=O)CCc1c-2cnn1-c1cccc(Cl)c1 classified in this test?
inactive

What was the test verdict on CC(C)NCC(O)COc1ccc(CCOCC2CC2)cc1 (centres undefined) ?
inactive

State the result this test recorded for O=C(NC1CC1)c1cc2n(n1)CC(c1ccccc1)N2 (centres undefined) .
inactive

Assay outcome for C=CC(=O)N1CC2(CCC(n3nc(-c4ccc(Oc5ccccc5)cc4)c4c(N)ncnc43)CC2)C1 : what was it?
active

Give the logged outcome of this assay for the following compound: Clc1ccc2c(N3CCN(c4ccnc(NC5CCCCC5)n4)CC3)ccnc2c1
inactive

State the result this test recorded for CCOC(=O)c1c(Cl)c2c(n1Cc1cc(OC)cc(OC)c1)-c1oncc1CCC2 .
active

Could you kindly confirm the outcome this assay logged for CCCCCCCCCCCC(=O)[O][Sn]([CH2]CCC)([CH2]CCC)[CH2]CCC ?
active

Would you mind telling me which call this test gave Cc1nn(-c2ccccc2)c2nc3nc4c(c(N)c3c(-c3ccc(Cl)cc3)c12)CCC4 ?
inactive

# outcome recorded in this test, key = Cc1ccc(S(=O)(=O)N2C/C(=C\c3cc(F)cc(F)c3)C(=O)/C(=C/c3cc(F)cc(F)c3)C2)cc1
active

Call for entry CCN1CCN(C(=S)SCC(=O)Nc2nc3ccc(OC)cc3s2)CC1 :
inactive

Short answer needed: outcome of this test for Cc1c(C(=O)Nc2nc(-c3ccccc3)cs2)nnn1-c1cccc2ccccc12 ?
inactive

For this compound, state the assay outcome: Cc1nc(NN)c([N+](=O)[O-])c(NN)n1
inactive
